Assay: chemical genetic growth profiling, strain panel (AID 1159580);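 also: tested at 20 µM; growth read once vehicle control cultures reached saturation at 30 °C; 1 = growth at the plate median or of vehicle wells; lower values mean less growth of the strain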
Settings: S. cerevisiae deletion strains, growth OD, locus YML016C, strain PPZ1, active compounds read low
Among all 5,500 compounds or so, about 2,000 (36%) were called active. Inconclusive results (about 18%) are left out. This is one part of the list.

>  <compound>
OC(CCN1CCCC1)(c1ccccc1)C1CCCCC1 (centres undefined)

>  <normalized growth>
0.991

$$$$
>  <compound>
O=C(COc1ccc(Cl)cc1)N1CCN(Cc2ccc3c(c2)OCO3)CC1

>  <normalized growth>
0.97

$$$$
>  <compound>
COc1cc(C(=O)O[C@H]2CC[C@@]3(C)[C@@H]4CC[C@H]5[C@]6(O)C[C@H](O)[C@@]7(O)[C@@H](CN8C[C@@H](C)CC[C@H]8[C@@]7(C)O)[C@]6(O)C[C@@]53O[C@]24O)cc(OC)c1OC

>  <normalized growth>
0.998

$$$$
>  <compound>
CC(C)(C#N)O[C@@H]1O[C@H](CO)[C@@H](O)[C@H](O)[C@H]1O

>  <normalized growth>
0.987

$$$$
>  <compound>
COC(=O)C[C@H]1C(C)(C)C(=O)[C@@H]2CC3C4=CC(=O)O[C@@H](c5ccoc5)[C@]4(C)CCC3[C@@]1(C)C2=O (some centres undefined)

>  <normalized growth>
0.978

$$$$
>  <compound>
Cc1cc(O)ccc1Cl

>  <normalized growth>
1

$$$$
>  <compound>
CC(=O)OC1CC(OC(C)=O)C2(C)C(CC(OC(C)=O)C3(C)C4=CC(=O)OC(=O)C4(C)CCC32)C1(C)C (centres undefined)

>  <normalized growth>
1.01

$$$$
>  <compound>
Nc1c2ccccc2nc2ccccc12

>  <normalized growth>
0.847

$$$$
>  <compound>
CCOP(=S)(OCC)Oc1cc(C)nc(C(C)C)n1

>  <normalized growth>
0.993

$$$$
>  <compound>
C/C=C(/C)C(=O)O[C@H]1CC[C@@]2(C)[C@@H]3CC[C@H]4[C@]5(O)C[C@H](O)[C@@]6(O)[C@@H](CN7C[C@@H](C)CC[C@H]7[C@@]6(C)O)[C@]5(O)C[C@@]42O[C@]13O

>  <normalized growth>
1

$$$$
>  <compound>
C/C=C(/C)C(=O)OC1CCC2(C)C3CCC4C5(O)CC(O)C6(O)C(CN7CC(C)CCC7C6(C)O)C5(O)CC42OC13O (centres undefined)

>  <normalized growth>
0.969

$$$$
>  <compound>
CC(=O)O[C@H]1CC[C@@]2(C)C(CC[C@]3(C)C2CC=C2C4CC(C)(C)CC[C@]4(C)CC[C@]23C)C1(C)C (some centres undefined)

>  <normalized growth>
0.996

$$$$
>  <compound>
OC(CCN1CCCCC1)(c1ccccc1)C1CCCCC1 (centres undefined)

>  <normalized growth>
1.01

$$$$
>  <compound>
Cc1cc(O)cc(C)c1Cl

>  <normalized growth>
0.992

$$$$

----------
Assay: chemical genetic growth profiling, strain panel (AID 1159580);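 also: tested at 20 µM; growth read once vehicle control cultures reached saturation at 30 °C; 1 = growth at the plate median or of vehicle wells; lower values mean less growth of the strain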
Conditions: S. cerevisiae deletion strains, growth OD, locus YJL092W, strain hpr5, active compounds read low
Out of some 5,500 compounds screened, about 2,000 (36%) were called active. Another 18% or so got no clear call; they are omitted. This is one part of the list.
readoutKind: normalized growth

>  <compound>
Clc1ccccc1C(c1ccccc1)(c1ccccc1)n1ccnc1

>  <resultNumber>
0.0611

$$$$
>  <compound>
CC(C)=CCCC1(C)C=Cc2c(O)c3c(c(CC=C(C)C)c2O1)OC12C(=CCCC1C(C)(C)O[C@@]2(C/C=C(\C)C(=O)O)C(=O)O)C3=O (stereo not given in full)

>  <resultNumber>
0.949

$$$$
>  <compound>
N#CC(O[C@@H]1O[C@H](CO[C@@H]2O[C@H](CO)[C@@H](O)[C@H](O)[C@H]2O)[C@@H](O)[C@H](O)[C@H]1O)c1ccccc1 (stereo not given in full)

>  <resultNumber>
0.987

$$$$
>  <compound>
Cc1cc(-n2c(=O)[nH]c(=O)n(C)c2=O)ccc1Oc1ccc(SC(F)(F)F)cc1

>  <resultNumber>
0.844

$$$$
>  <compound>
CCCCCCCCCCCCCCC(C(=O)O)C(O)(CC(=O)OC)C(=O)O (stereo not given)

>  <resultNumber>
1.01

$$$$
